Molecular target: FLAG tagged human Ang2 (Alexis Biochemicals) (human) (UniProt O15123)
Sequence (O15123 19-496): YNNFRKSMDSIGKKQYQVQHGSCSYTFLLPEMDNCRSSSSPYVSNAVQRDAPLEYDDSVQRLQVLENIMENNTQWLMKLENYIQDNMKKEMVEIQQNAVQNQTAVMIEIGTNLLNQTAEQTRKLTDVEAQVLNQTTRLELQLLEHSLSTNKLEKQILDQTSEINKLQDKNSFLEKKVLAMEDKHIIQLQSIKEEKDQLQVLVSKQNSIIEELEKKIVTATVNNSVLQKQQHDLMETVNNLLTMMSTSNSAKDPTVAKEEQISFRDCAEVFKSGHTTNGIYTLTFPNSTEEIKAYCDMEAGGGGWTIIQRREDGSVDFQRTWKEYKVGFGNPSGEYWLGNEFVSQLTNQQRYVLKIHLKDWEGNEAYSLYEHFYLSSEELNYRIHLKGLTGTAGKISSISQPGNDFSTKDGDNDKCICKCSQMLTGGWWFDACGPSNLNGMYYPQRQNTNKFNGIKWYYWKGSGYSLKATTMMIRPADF
Assay: AlphaScreen competition, periplasmic extract, FLAG-hAng2 / biotin-hTie2/Fc
endpoint: % inh (%)

- binder: "VHH 24B05 (VHH, not shown: small tags and cut ends) VHH: EVQLVESGGGLVQPGGSLRLSCAASGFTLDYYAIGWFRQAPGKEWEGVSCISSSDGSTYYADSVKGRFTISRDNAKNTVYLQMNSLKPEDTAVYYCATDSIVCGSYYGMDYWGKGTQVTVSS"
  readout.number: 97
- binder: "VHH 8A11 (VHH, not shown: small tags and cut ends) VHH: EVQLVESGGGLVQAGGSLRLSCAASGRTFSSYAMGWFRQAPGKELEFVTAVSWSGGSTYYADSVKGRFTISRDSAKNTVYLQMNSLKPEDTAVYYCAAQSTIVEVTTLEAYDYWGQGTQVTVSS"
  readout.number: 57
- binder: "VHH 2G01 (VHH, not shown: small tags and cut ends) VHH: EVQLVESGGGLVQAGGSLRLSCAASGRTISSYAMAWFRQAPGKEREFVAAISLSGDSTYYADSVKGRFTISRDNAKNTVYLQMNSLKPEDTAEYYCAATDWDFEDIPEYYCSGYGCDESLFDSWGQGTQVTVSS"
  readout.number: 55
- binder: "VHH 19A03 (VHH, not shown: small tags and cut ends) VHH: EVQLVESGGGLVQAGGSLRLSCAASGFTFDDYAIAWFRQAPGKEREGISCITPSDDRTYYADSVKGRFIISSDNAKNTVYLQMNSLKPEDTADYYCAAVPRLRGLGYWPYPEYEYDYWGQGTQVTVSS"
  readout.number: 74
